# system_name: Potassium voltage-gated channel subfamily KQT member 2 (Rattus norvegicus) (UniProt O88943)
# Sequence (O88943 whole entry, looked up): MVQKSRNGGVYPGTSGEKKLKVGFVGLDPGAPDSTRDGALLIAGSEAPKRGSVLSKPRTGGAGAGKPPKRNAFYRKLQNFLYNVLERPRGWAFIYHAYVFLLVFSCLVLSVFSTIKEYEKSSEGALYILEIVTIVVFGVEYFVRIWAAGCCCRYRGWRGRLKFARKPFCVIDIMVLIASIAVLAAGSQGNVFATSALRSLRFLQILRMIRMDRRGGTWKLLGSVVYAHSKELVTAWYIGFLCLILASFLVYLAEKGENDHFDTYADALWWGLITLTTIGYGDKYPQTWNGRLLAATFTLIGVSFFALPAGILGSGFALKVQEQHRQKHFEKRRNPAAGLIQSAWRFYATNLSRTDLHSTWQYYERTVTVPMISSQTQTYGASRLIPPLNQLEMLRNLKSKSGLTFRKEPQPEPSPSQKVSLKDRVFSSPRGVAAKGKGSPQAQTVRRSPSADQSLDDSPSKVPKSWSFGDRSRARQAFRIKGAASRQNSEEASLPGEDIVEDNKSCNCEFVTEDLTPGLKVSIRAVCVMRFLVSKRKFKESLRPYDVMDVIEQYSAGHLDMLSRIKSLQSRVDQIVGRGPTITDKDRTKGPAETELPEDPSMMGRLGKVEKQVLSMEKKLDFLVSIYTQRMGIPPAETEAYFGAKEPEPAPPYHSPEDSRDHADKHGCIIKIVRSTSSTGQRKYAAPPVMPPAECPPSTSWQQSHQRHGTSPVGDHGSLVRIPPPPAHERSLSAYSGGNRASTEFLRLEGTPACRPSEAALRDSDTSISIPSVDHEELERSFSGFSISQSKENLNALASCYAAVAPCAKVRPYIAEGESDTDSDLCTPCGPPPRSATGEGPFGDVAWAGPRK
# method_description: KCNQ2 potentiation in CHO cells – cell-based, FluxOR thallium flux, counter-screen for hERG block protector project, confirmation (AID 1942);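 further: normalized value minus buffer-control mean plus three SD of buffer wells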
# condition_info: FluxOR thallium flux fluorescence, at 10 µM, stronger effect = higher value
Out of some 2,400 compounds screened, about 580 (24%) were called active. These entries were drawn from the full list.

| smiles_record | units_text | activity change, less the hit threshold |
| --- | --- | --- |
| CC(C)Cc1nnc(NC(=O)Cc2ccccc2[N+](=O)[O-])s1 | % | -18.1 |
| CCc1ccc(OCC(=O)Nc2ncn[nH]2)cc1 | % | -16.1 |
| O=[N+]([O-])c1ccc(Nc2ccc(Cl)cc2)nc1 | % | 3.5 |
| CCc1nnc(NC(=O)CCC(=O)N2CCN(C3CCCCC3)CC2)s1 | % | -21.4 |
| Cc1cccc(OCC(=O)NCc2nc(-c3ccccc3)no2)c1 | % | -17.2 |
| O=C(O)c1ccc2c(c1)C(=O)N(c1cc([N+](=O)[O-])ccn1)C2=O | % | -1.1 |
| CCc1nnc(NC(=O)c2cccc(S(=O)(=O)N3CCN(c4ccccc4)CC3)c2)s1 | % | -21.2 |
